Data provenance: patent US5733918A

- Test system: P388 mouse leukemia cells
- assay: Cytotoxicity against P388 mouse leukemia cells (crystal violet staining)
- Format: cell-based
- condition_notes: 72 h, 3 days incubation, cell number reduced to 50% of control
test_readout: IC50 (ng/mL)
Provide the reading as a plain figure in ng/mL.

Worked examples, 5 compounds total:
{"record_smiles": "CN(C)CCNc1nc2ccccc2c2c1C(=O)c1cc3c(cc1-2)OCO3", "target_entity": "P388 mouse leukemia cells", "IC50 / ng/mL": 1.2}
{"record_smiles": "CN(C)CCNc1nc2ccccc2c2c1C(=O)c1ccccc1-2", "target_entity": "P388 mouse leukemia cells", "IC50 / ng/mL": 2}
{"record_smiles": "CN(C)CCNc1nc2ccc(O)cc2c2c1C(=O)c1ccccc1-2", "target_entity": "P388 mouse leukemia cells", "IC50 / ng/mL": 6}
{"record_smiles": "CN(C)CCNc1nc2cc(O)ccc2c2c1C(=O)c1cc(Cl)ccc1-2", "target_entity": "P388 mouse leukemia cells", "IC50 / ng/mL": 0.11}
{"record_smiles": "CCN(CC)CCNc1nc2cc(O)ccc2c2c1C(=O)c1ccccc1-2", "target_entity": "P388 mouse leukemia cells", "IC50 / ng/mL": 0.65}

Lookup: Given O=C1c2ccccc2-c2c1c(NCCN1CCCC1)nc1cc(O)ccc21 , respond with its IC50.
Found: 0.42

Lookup: Given CN(C)CCOc1nc2ccccc2c2c1C(=O)c1cc3c(cc1-2)OCO3 , respond with its IC50.
Found: 0.87

Lookup: Given COc1ccc2c3c(c(NCCN(C)C)nc2c1)C(=O)c1ccccc1-3 , respond with its IC50.
Found: 24

Lookup: Given CN(C)CCNc1nc2cc(N)ccc2c2c1C(=O)c1ccccc1-2 , respond with its IC50.
Found: 11

Lookup: Given CN(C)CCN(C)c1nc2c(c3ccccc13)-c1ccccc1C2=O , respond with its IC50.
Found: 160

Lookup: Given CN1CCN(c2nc3cc(O)ccc3c3c2C(=O)c2ccccc2-3)CC1 , respond with its IC50.
Found: 7.4

Lookup: Given CN(C)CCNc1nc2ccccc2c2c1C(=O)c1ccc(O)cc1-2 , respond with its IC50.
Found: 2

Lookup: Given CN1CCN(c2nc3c(c4ccccc24)-c2ccccc2C3=O)CC1 , respond with its IC50.
Found: 450
